System: MS2 coat protein
METHOD_SUMMARY: apparent KD of MS2 coat protein; designed switch direction (-1 OFF switch, 1 ON switch): 1; higher = weaker reporter binding
TEST_CONDITIONS: Eterna round: R95; input ligand: FMN 200 uM

>  <RESIDUE_CODES>
AGCGAAAUAAGCAAGGAUAUGUAAUUUGGCACAUGAGGAUCACCCAUGUCAAUCCAUUUUUUGGAACAGAAGGUGCAUUUUUUUU [ak third] (puzzle: Same State 2)

>  <apparent KD of MS2 coat protein / µM>
0.069

$$$$
>  <RESIDUE_CODES>
AACAAUCUAUCUGAGGAUAUCAUGAAUUAAACAUGAGGAUCACCCAUGUGCAGGAAAACUGCAUAUGAGAAGGCAGAUAGAUUGA [salish99_ss2_r3_032] (puzzle: Same State 2)

>  <apparent KD of MS2 coat protein / µM>
0.0402

$$$$
>  <RESIDUE_CODES>
UAGAAACAUGAGGAUCACCCAUGUGGGUUAAACACAGGAUAUCACACCAAACGAAAGGCGUGAGAAGGGUGACCGU [Xeonreais] (puzzle: Same State 1)

>  <apparent KD of MS2 coat protein / µM>
0.062

$$$$
>  <RESIDUE_CODES>
GUAAUACAUGAGGAUCACCCAUGUCAAUGUAGUCGAGGAUAUGGGUAGCUAUGAGGCGUACUAGAAGGCGAGGAGU [JL-ss1-3.18 ViennaUCT mod] (puzzle: Same State 1)

>  <apparent KD of MS2 coat protein / µM>
0.258

$$$$
>  <RESIDUE_CODES>
AGCUAUCGAAAACGAUAGCAAAAGCAUGUACAUGAGGAUCACCCAUGUCAUGUACAAGCUUUUUGUUCGUCUUAAAA [Zipper 23 - 14] (puzzle: Sensor for hsa-mir-208a)

>  <apparent KD of MS2 coat protein / µM>
0.43

$$$$
>  <RESIDUE_CODES>
UGUUAACAUGAGGAUCACCCAUGUCAAAUGAAUCGAGGAUAUGGAAAGUAAUAAGAUGAACUAGAAGGCGAAGUUG [Altered State 1-18 - Jieux - Same State 1] (puzzle: Same State 1)

>  <apparent KD of MS2 coat protein / µM>
0.0462

$$$$
>  <RESIDUE_CODES>
GGCUAUCGGCGUACCGAUAGCUGGUAUGUACAUGAGGAUCACCCAUGUCAUGUACAGGCUUUUUGCUCGUCUUAUUG [JL-shm-2.39 JL mod] (puzzle: Sensor for hsa-mir-208a)

>  <apparent KD of MS2 coat protein / µM>
0.134

$$$$
>  <RESIDUE_CODES>
GGAGCCAGCACCGAGGAUAUUCAUAUUAAAACAUGAGGAUCACCCAUGUAGGCCAGAAGGCCUUGGGAGAAGGCGGACUGGCUCG [Xeonanis - 11] (puzzle: Same State 2)

>  <apparent KD of MS2 coat protein / µM>
0.0285

$$$$
>  <RESIDUE_CODES>
GGUCCGGCCUGAGCUGGACCGAAGCAUGUACAUGAGGAUCACCCAUGUCAUGUACAGGCUUUUUGCUCGUCUUGUUG [JL-shm-2.14 JL Mod] (puzzle: Sensor for hsa-mir-208a)

>  <apparent KD of MS2 coat protein / µM>
0.691

$$$$
>  <RESIDUE_CODES>
AGUCCAGCCUGAGCUGGACAAAAGCAUGUACAUGAGGAUCACCCAUGUUCAUGUACAAGUUUUUUGCUCGUCUUAAA [Zipper 52 - 10] (puzzle: Sensor for hsa-mir-208a)

>  <apparent KD of MS2 coat protein / µM>
0.0384

$$$$
